assayed_system: human toll like receptor 8 (hTLR8) (Homo sapiens, UniProt Q9NR97)
Sequence (Q9NR97 27-1041): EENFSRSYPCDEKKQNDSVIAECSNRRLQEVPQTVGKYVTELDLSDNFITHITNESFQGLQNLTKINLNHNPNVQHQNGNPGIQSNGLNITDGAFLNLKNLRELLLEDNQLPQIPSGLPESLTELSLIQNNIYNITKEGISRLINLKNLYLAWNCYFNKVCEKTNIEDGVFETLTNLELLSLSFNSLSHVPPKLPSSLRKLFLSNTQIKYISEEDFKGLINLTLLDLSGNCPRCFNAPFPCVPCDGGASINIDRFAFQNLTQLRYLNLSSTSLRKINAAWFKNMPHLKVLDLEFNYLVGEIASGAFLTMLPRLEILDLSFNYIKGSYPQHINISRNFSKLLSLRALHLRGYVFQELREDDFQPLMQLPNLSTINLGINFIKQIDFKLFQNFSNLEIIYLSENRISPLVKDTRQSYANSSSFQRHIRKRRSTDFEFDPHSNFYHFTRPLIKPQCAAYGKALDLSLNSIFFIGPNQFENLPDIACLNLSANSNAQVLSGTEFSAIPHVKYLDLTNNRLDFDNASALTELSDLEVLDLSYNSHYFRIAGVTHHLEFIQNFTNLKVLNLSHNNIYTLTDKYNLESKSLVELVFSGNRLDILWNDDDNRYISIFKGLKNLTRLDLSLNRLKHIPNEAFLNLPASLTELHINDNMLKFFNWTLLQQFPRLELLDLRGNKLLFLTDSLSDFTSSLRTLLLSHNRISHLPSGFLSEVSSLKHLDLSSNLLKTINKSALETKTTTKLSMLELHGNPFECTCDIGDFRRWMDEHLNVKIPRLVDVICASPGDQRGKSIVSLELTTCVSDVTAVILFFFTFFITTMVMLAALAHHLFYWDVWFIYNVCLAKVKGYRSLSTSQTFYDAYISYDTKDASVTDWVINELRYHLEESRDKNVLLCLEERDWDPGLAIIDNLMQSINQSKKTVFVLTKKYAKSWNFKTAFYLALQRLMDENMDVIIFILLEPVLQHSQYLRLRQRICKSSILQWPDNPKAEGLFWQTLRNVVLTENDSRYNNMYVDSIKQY
assay_name: hTLR8 in-vitro functional assay (HEK-Blue hTLR8 SEAP reporter)
assay_conditions: HEK-Blue hTLR8 cells, overnight incubation
Method: To determine the ability of test compounds to activate the human toll like receptor 7 (hTLR7) or human toll like receptor 8 (hTLR8), cell-based reporter systems were utilized. […] Stimulation of hTLR7 or hTLR8 in these cells activates NF-kB and AP-1 and induces the production of SEAP which can be quantified using an alkaline phosphatase detection reagent. […] Using Positive (tool compound) and Negative (DMSO) controls, the percent (%) effect was calculated for each sample using the following equation: […]
pEC50: −log10 of the molar value.
value_type: pEC50

Would you please look over these solved cases?
CCCCc1nc2c(N)nc3cc(CCCN4CCN(C(=O)CCOCCOCCOCCOCCOCCOCCOCCOCCOCCOCCOCCOCCOCCOCCOCCOCCOCCOCCOCCOCCOCCOCCOCCOCCNC(=O)CCOCCOCCOCCOCCOCCOCCOCCOCCOCCOCCOCCOCCOCCOCCOCCOCCOCCOCCOCCOCCOCCOCCOCCOCCNC(=O)O[C@H]5CC[C@@]6(C)C(=CC[C@H]7[C@@H]8CC[C@H]([C@H](C)CCCC(C)C)[C@@]8(C)CC[C@@H]76)C5)CC4)ccc3c2n1CC(C)(CO)CO [Compound 8] = 6.14
CCCCc1nc2c(N)nc3cc(CCCN4CCN(CCCOCCNC(=O)O[C@H]5CC[C@@]6(C)C(=CC[C@H]7[C@@H]8CC[C@H]([C@H](C)CCCC(C)C)[C@@]8(C)CC[C@@H]76)C5)CC4)ccc3c2n1CC(C)(CO)CO [Compound 10] = 5.00
CCCCc1nc2c(N)nc3cc(CCCN4CCN(C(=O)CCOCCOCCOCCOCCOCCOCCOCCOCCOCCOCCOCCOCCNC(=O)O[C@H]5CC[C@@]6(C)C(=CC[C@H]7[C@@H]8CC[C@H]([C@H](C)CCCC(C)C)[C@@]8(C)CC[C@@H]76)C5)CC4)ccc3c2n1CC(C)(CO)CO [Compound 20] = 4.66
CCCCc1nc2c(N)nc3cc(CCCN4CCN(CCCOCCOCCOCCOCCOCCOCCOCCOCCNC(=O)O[C@H]5CC[C@@]6(C)C(=CC[C@H]7[C@@H]8CC[C@H]([C@H](C)CCCC(C)C)[C@@]8(C)CC[C@@H]76)C5)CC4)ccc3c2n1CC(C)(CO)CO [Compound 23] = 4.83
CCCCc1nc2c(N)nc3cc(CCCN4CCN(C(=O)CCOCCOCCOCCOCCOCCOCCOCCOCCOCCOCCOCCOCCNC(=O)CCOCCOCCOCCOCCNC(=O)CCCOc5c(C)c(C)c6c(c5C)CC[C@@](C)(CCC[C@H](C)CCC[C@H](C)CCCC(C)C)O6)CC4)ccc3c2n1CC(C)(CO)CO [Compound 25] = 5.08

P = CCCCc1nc2c(N)nc3cc(CCCN4CCN(CCCOCCOCCOCCOCCNC(=O)CCOCCOCCOCCOCCNC(=O)O[C@H]5CC[C@@]6(C)C(=CC[C@H]7[C@@H]8CC[C@H]([C@H](C)CCCC(C)C)[C@@]8(C)CC[C@@H]76)C5)CC4)ccc3c2n1CC(C)(CO)CO [Compound 15]
Q = CCCCc1nc2c(N)nc3cc(CCCN4CCN(CCCOCCOCCNC(=O)O[C@H]5CC[C@@]6(C)C(=CC[C@H]7[C@@H]8CC[C@H]([C@H](C)CCCC(C)C)[C@@]8(C)CC[C@@H]76)C5)CC4)ccc3c2n1CC(C)(CO)CO [Compound 18]
In: Consider entries P and Q . Which has the numerically lower pEC50? Respond with the label that goes with your answer.
Out: P
(P: 4.76, Q: 5.00)
